- Test system: K-562 leukemia
- measurement_notes: NCI-60 one-dose screen, 48 h (100 = growth as untreated, 0 = no growth, -100 = all killed)
- assay_setup: 10 µM unless noted
Compounds without any hit were thinned out: in the full panel of roughly 83,000, 20% have a hit.
Everything with growth lower than 20% is f; everything else, including exactly 20%, is t.

Worked examples follow.
[
  {
    "molecule": "O=S(=O)(NCCCNc1nccc(-c2[nH]c(-c3ccccc3)nc2-c2ccc(F)c(O)c2)n1)c1ccc(C(F)(F)F)cc1",
    "label": "f"
  },
  {
    "molecule": "O=C(Nc1ccc(N=Cc2c(O)[nH]c3ccccc23)cc1)Nc1ccc(S(=O)(=O)Nc2ncccn2)cc1",
    "label": "t"
  },
  {
    "molecule": "COc1ccc2c(c1)c(/C=N/Nc1ccnc3cc(Cl)ccc13)cn2C",
    "label": "f"
  },
  {
    "molecule": "O=C(Nc1cc(C(F)(F)F)cc(C(F)(F)F)c1)Nc1ccc2oc(=O)ccc2c1",
    "label": "f"
  },
  {
    "molecule": "Cc1ccc(C(=O)Nc2ccc(CNCCN3CCOCC3)c(C(F)(F)F)c2)cc1C#Cc1cnc2cccnn12",
    "label": "f"
  }
]

Input: Is reported growth greater than or equal to 20% here: C=C(C)[C@@H]1CC[C@]2(C(=O)N3CCN(C)CC3)CC[C@]3(C)[C@H](CC[C@@H]4[C@@]5(C)CC[C@H](OP(=O)(OCC)OCC)C(C)(C)[C@@H]5CC[C@]43C)[C@@H]12
Output: t

Input: Is reported growth greater than or equal to 20% here: Cc1ccc2c(n1)C(=O)C(Cl)=C(Nc1ccc(C(F)(F)F)cc1)C2=O
Output: f

Input: Is reported growth greater than or equal to 20% here: C#Cc1nc(C(=O)NCCCCCCC(=O)NO)cs1
Output: f

----------
- System: A549/ATCC NSCLC
- measurement_notes: NCI-60 one-dose screen, 48 h
- assay_setup: 10 µM unless noted
Compounds without any hit were thinned out: in the full panel of roughly 83,000, 20% have a hit. The source made the active and inactive calls. The calls were made as follows: active = growth percent below 10; inactive = the rest.
Outcomes you can answer with include only these: yes (1) for active, no (0) for inactive

Worked examples follow.
[
  {
    "compound": "Cc1csc(/N=C(N)/N=C(\\N)c2cccc(C#N)c2)n1",
    "label": "no (0)"
  },
  {
    "compound": "COc1cc2cc(Oc3ccc(NC(=O)Nc4ccc(F)c(C(F)(F)F)c4)cc3)c(C)nc2cc1OCCN(C)C",
    "label": "no (0)"
  },
  {
    "compound": "O=C(CSc1nc2ccccc2c(=O)n1CCc1ccccc1)Nc1ccc(S(=O)(=O)Nc2ccc(Cl)nn2)cc1",
    "label": "no (0)"
  }
]

Input: What classification did C=C(C)[C@@H]1CC[C@]2(C(=O)NC3CCCCC3)CC[C@]3(C)[C@H](CC[C@@H]4[C@@]5(C)CC[C@H](N)C(C)(C)[C@@H]5CC[C@]43C)[C@@H]12 end up with in this test?
Output: no (0)

Input: What classification did CNCCN(C)c1ccc(Nc2cc(NC3CC3)n3ncc(C#N)c3n2)cc1NC(C)=O end up with in this test?
Output: no (0)

----------
- Test system: RXF 393 renal
- measurement_notes: NCI-60 one-dose screen, 48 h (100 = growth as untreated, 0 = no growth, -100 = all killed)
- assay_setup: 10 µM unless noted
The panel holds about 83,000 compounds, 20% with a hit somewhere; the sample as a whole holds those more often.
attribute_measured: growth (%)
Quick reminder: number only, in %, skip the unit.

[
  {
    "compound": "CCNCCOc1ccc(/C(=C(/CC)c2ccc(Cl)cc2)c2ccc(OCCCN(C)C)cc2)cc1",
    "growth, %": -92.1
  },
  {
    "compound": "Cc1ccc(NC(=O)/C=C/c2ccc(OCCCOc3ccc4c(C)cc(=O)oc4c3)cc2)cc1",
    "growth, %": 44.1
  },
  {
    "compound": "CC(C)(C)OC(=O)NCc1ccc(CNc2c([N+](=O)[O-])cnc3ccccc23)cc1",
    "growth, %": 105
  },
  {
    "compound": "O=S(=O)(NCCCNc1nccc(-c2[nH]c(-c3ccccc3)nc2-c2ccc(F)c(O)c2)n1)c1cccc2ccccc12",
    "growth, %": 75.4
  },
  {
    "compound": "COc1ccc(C(=O)c2c(N)c(C#N)cn2-c2ccc(Cl)cc2Cl)cc1",
    "growth, %": 97
  },
  {
    "compound": "O=C(CCCCCCNC(=O)C(O)(O)C(F)(F)F)Nc1ccc(Cl)cc1",
    "growth, %": -23.7
  }
]

Quick note, growth for O=C1[C@@H]2Cc3c([nH]c4ccccc34)[C@H](c3ccc(Br)cc3)N2C(=O)CN1C1CCN(Cc2c(Cl)cccc2Cl)CC1 landed at 120

Quick note, growth for CCc1cccc2c3c(sc12)C(c1ccc(F)cc1)C(C#N)=C(/N=C/c1ccc(Cl)cc1)O3 (centres undefined) landed at -7.19

Quick note, growth for COc1ccc2c(c1)C=CC1(O2)Oc2ccc(OC)cc2C=C1C (centres undefined) landed at -12.3

----------
- System: SW-620 colon
- measurement_notes: NCI-60 one-dose screen, 48 h
- assay_setup: 10 µM unless noted
The panel holds about 83,000 compounds, 20% with a hit somewhere; the sample as a whole holds those more often. Active and inactive are the calls of the source. How the source made its calls: active means growth percent below 10; inactive means the rest.
Outcomes you can answer with include only these: active, inactive

Worked examples follow.
[
  {
    "compound": "COc1ccc(C(C)=C(c2ccc(OCCN3CCCCCC3)cc2)c2ccc(OCCN3CCCCCC3)cc2)cc1",
    "label": "active"
  },
  {
    "compound": "CN1CCN(c2ccc(Nc3nc(NCCNS(=O)(=O)c4ccccc4)c4sccc4n3)cc2)CC1",
    "label": "inactive"
  },
  {
    "compound": "COc1ccc(C(=NNS(=O)(=O)c2ccc(C)cc2)c2ccccc2)cc1OC",
    "label": "inactive"
  },
  {
    "compound": "O=c1nc(Nc2ccc([N+](=O)[O-])cc2O)sc2ccccc12",
    "label": "inactive"
  },
  {
    "compound": "Cc1cc(Br)ccc1-n1cc(C#N)c(N)c1C(=O)c1ccc(Br)cc1",
    "label": "inactive"
  }
]

Input: What classification did O=C(CSc1cc[n+](CCCCO)c2ccccc12)n1ccc2ccccc21 end up with in this test?
Output: inactive

Input: What classification did O=c1c2cc(-c3ccc(F)cc3F)ccc2n(O)c(=O)n1-c1cccc(C(F)(F)F)c1 end up with in this test?
Output: inactive

----------
- System: A498 renal
- measurement_notes: NCI-60 one-dose screen, 48 h (100 = growth as untreated, 0 = no growth, -100 = all killed)
- assay_setup: 10 µM unless noted
Compounds without any hit were thinned out: in the full panel of roughly 83,000, 20% have a hit. The source made the active and inactive calls. The calls were made as follows: active = growth percent below 10; inactive = the rest.
Entries annotated with measured growth

Some molecules with recorded growth:
[
  {
    "molecule": "C#Cc1nc(C(=O)NCCCCCCC(=O)NO)cs1",
    "growth": "-95.1% (active)"
  },
  {
    "molecule": "O=C(/C=C/c1ccccc1Cl)Nc1ncc(Cc2cc(Cl)ccc2Cl)s1",
    "growth": "-16.6% (active)"
  },
  {
    "molecule": "Cc1csc(/N=C(N)/N=C(\\N)c2cccnc2)n1",
    "growth": "59.6% (inactive)"
  },
  {
    "molecule": "Cc1csc(/N=C(N)/N=C(\\N)c2cccs2)n1",
    "growth": "120% (inactive)"
  },
  {
    "molecule": "NNc1nnc2nc(Nc3ccccc3)nc(Nc3ccc(S(N)(=O)=O)cc3)n12",
    "growth": "102% (inactive)"
  }
]

Measured on A498 renal, CC(C)(O)c1cncc(-c2ccc3ncc(C#N)c(N4CCc5cc(F)c(Cl)cc54)c3c2)c1 has a documented growth of -18.3% (active)

Measured on A498 renal, Cc1ccc(OCc2occc2C(=O)N2CCOCC2)cc1 has a documented growth of 98.1% (inactive)

----------
Entries annotated with measured growth
- Test system: 786-0 renal
- measurement_notes: NCI-60 one-dose screen, 48 h (100 = growth as untreated, 0 = no growth, -100 = all killed)
- assay_setup: 10 µM unless noted
The panel holds about 83,000 compounds, 20% with a hit somewhere; the sample as a whole holds those more often.
Quick reminder: number only, in %, skip the unit.

[
  {
    "molecule": "Fc1cccc(Cl)c1/C=N/Nc1nc(N/N=C/c2c(F)cccc2Cl)nc(N2CCCCC2)n1",
    "attribute_measured": "growth",
    "measured_number": 28.3
  },
  {
    "molecule": "CC1(C)C=Cc2cc(/C(N)=N/C(N)=N/c3nc4ccccc4s3)ccc2O1",
    "attribute_measured": "growth",
    "measured_number": 113
  },
  {
    "molecule": "Cc1ccc(Nc2nc(SC(C)C)nc(-c3ccccc3)c2C#N)cc1",
    "attribute_measured": "growth",
    "measured_number": 92.2
  }
]

Quick note, growth for Nc1cc(C(=O)N/N=C\c2ccc(OC(F)F)c(OC3CCCC3)c2)nn1CC(O)c1ccccc1 (centres undefined) landed at 107

Quick note, growth for C#CCn1cc(/C=N/Nc2nc(-c3ccc(Br)cc3)cs2)c2ccccc21 landed at 105

Quick note, growth for COc1ccc(/C(=N\NC(N)=S)c2ccc(Cl)cc2)cc1OC landed at 42.1

Quick note, growth for CC[C@H](CC[C@@H](C)[C@H]1CC[C@H]2[C@@H]3CC(=O)C4=CC(=O)/C(=C/c5ccc([N+](=O)[O-])cc5)C[C@]4(C)[C@H]3CC[C@]12C)C(C)C landed at 99

Quick note, growth for CC(=O)Nc1nc(C)c(-c2csc(Nc3ccccc3)n2)s1 landed at 25.7

Quick note, growth for CC(Nc1c(C#N)cnc2ccc(-c3cncc(-c4n[nH]c(=O)o4)c3)cc12)c1ccccc1 (centres undefined) landed at 9.83

Where these numbers come from: PubChem BioAssay (NCI)
